Attribution: PubChem BioAssay (Tox21)

Target: Cytochrome P450 2C9 (Homo sapiens)
Test: Cytochrome P450 Family 2 Subfamily C Member 9 (CYP2C9) small molecule antagonists: luciferase reporter qHTS assay (AID 1671198); further: nearly all actives have a fitted effect of over 50% in size
Conditions: P450-Glo CYP2C9 enzyme assay, luciferin luminescence; series mostly up to 115 µM
Inconclusive results are not listed. Calls of active or inactive are those of the source. The call rests on the fitted dose curve; in most records, active means well fitted inhibition curve with a large enough effect in the repeat runs; inconclusive means weak or mixed curves; inactive means no such curve, though single readings can be large or run the other way.
Outcomes: TRUE for active, FALSE for inactive

[[record]]
compound = "CCCCNc1ccccc1"
target_or_test_system = "Cytochrome P450 2C9 (Homo sapiens)"
qualitative_label = "FALSE"

[[record]]
compound = "CCCCc1ccc(N)cc1"
target_or_test_system = "Cytochrome P450 2C9 (Homo sapiens)"
qualitative_label = "TRUE"

[[record]]
compound = "NC(=O)c1c(Cl)cccc1Cl"
target_or_test_system = "Cytochrome P450 2C9 (Homo sapiens)"
qualitative_label = "FALSE"

[[record]]
compound = "COc1cccc(Br)c1"
target_or_test_system = "Cytochrome P450 2C9 (Homo sapiens)"
qualitative_label = "FALSE"

[[record]]
compound = "O=C(CCOCCOCCOCCOCCC(=O)Nc1c(I)cc(I)c(C(=O)O)c1I)Nc1c(I)cc(I)c(C(=O)O)c1I"
target_or_test_system = "Cytochrome P450 2C9 (Homo sapiens)"
qualitative_label = "FALSE"

[[record]]
compound = "CC(C)(C)CC(C)(C)N"
target_or_test_system = "Cytochrome P450 2C9 (Homo sapiens)"
qualitative_label = "FALSE"

[[record]]
compound = "CC(C)N1C(=O)c2ccccc2C1=O"
target_or_test_system = "Cytochrome P450 2C9 (Homo sapiens)"
qualitative_label = "FALSE"

[[record]]
compound = "OCc1ccccn1"
target_or_test_system = "Cytochrome P450 2C9 (Homo sapiens)"
qualitative_label = "FALSE"

[[record]]
compound = "CN(C)CCn1nnnc1SCC1=C(C(=O)O)N2C(=O)[C@@H](NC(=O)Cc3csc(N)n3)[C@H]2SC1"
target_or_test_system = "Cytochrome P450 2C9 (Homo sapiens)"
qualitative_label = "FALSE"

[[record]]
compound = "CC(C)(C)N(CCO)CCO"
target_or_test_system = "Cytochrome P450 2C9 (Homo sapiens)"
qualitative_label = "FALSE"

[[record]]
compound = "CC(=O)NC(Cc1ccccc1)C(=O)O (stereo not drawn)"
target_or_test_system = "Cytochrome P450 2C9 (Homo sapiens)"
qualitative_label = "FALSE"

[[record]]
compound = "C=CC(=O)OCCCCCC"
target_or_test_system = "Cytochrome P450 2C9 (Homo sapiens)"
qualitative_label = "FALSE"

[[record]]
compound = "CCN(CC)C(=O)c1ccc(O)c(OC)c1"
target_or_test_system = "Cytochrome P450 2C9 (Homo sapiens)"
qualitative_label = "FALSE"

[[record]]
compound = "COc1cc(O)cc(O)c1"
target_or_test_system = "Cytochrome P450 2C9 (Homo sapiens)"
qualitative_label = "FALSE"

[[record]]
compound = "NC(=O)c1ncn([C@@H]2O[C@H](CO)[C@@H](O)[C@H]2O)c1O"
target_or_test_system = "Cytochrome P450 2C9 (Homo sapiens)"
qualitative_label = "FALSE"

[[record]]
compound = "CCC(=O)Nc1cccc(N)c1"
target_or_test_system = "Cytochrome P450 2C9 (Homo sapiens)"
qualitative_label = "FALSE"

[[record]]
compound = "CCCOc1ccccc1-c1nc2n[nH]nc2c(=O)[nH]1"
target_or_test_system = "Cytochrome P450 2C9 (Homo sapiens)"
qualitative_label = "FALSE"

[[record]]
compound = "COc1ccc(NC(C)=O)cc1"
target_or_test_system = "Cytochrome P450 2C9 (Homo sapiens)"
qualitative_label = "FALSE"

[[record]]
compound = "CCOC(=O)Cn1c(=O)sc2cccc(Cl)c21"
target_or_test_system = "Cytochrome P450 2C9 (Homo sapiens)"
qualitative_label = "TRUE"

[[record]]
compound = "C=C(C)C(=O)NCCC[N+](C)(C)C"
target_or_test_system = "Cytochrome P450 2C9 (Homo sapiens)"
qualitative_label = "FALSE"

[[record]]
compound = "O=C(O)C1CCC1"
target_or_test_system = "Cytochrome P450 2C9 (Homo sapiens)"
qualitative_label = "FALSE"

[[record]]
compound = "CCO[Si](CCCN=C=O)(OCC)OCC"
target_or_test_system = "Cytochrome P450 2C9 (Homo sapiens)"
qualitative_label = "FALSE"

[[record]]
compound = "CCOC(=O)Nc1ccc2c(c1)N(C(=O)CCN1CCOCC1)c1ccccc1S2"
target_or_test_system = "Cytochrome P450 2C9 (Homo sapiens)"
qualitative_label = "TRUE"

[[record]]
compound = "C[C@H](O)C(=O)Nc1c(I)c(C(=O)NC(CO)CO)c(I)c(C(=O)NC(CO)CO)c1I"
target_or_test_system = "Cytochrome P450 2C9 (Homo sapiens)"
qualitative_label = "FALSE"

[[record]]
compound = "Nc1nc(F)nc2c1ncn2[C@@H]1O[C@H](CO)[C@@H](O)[C@@H]1O"
target_or_test_system = "Cytochrome P450 2C9 (Homo sapiens)"
qualitative_label = "FALSE"

[[record]]
compound = "CC(C)[C@H](N)C(=O)OCCOCn1cnc2c(=O)[nH]c(N)nc21"
target_or_test_system = "Cytochrome P450 2C9 (Homo sapiens)"
qualitative_label = "FALSE"

[[record]]
compound = "C/C=C1\\C(=O)C[C@H]2[C@@H]3CCC4=CC(=O)CC[C@]4(C)[C@H]3CC[C@]12C"
target_or_test_system = "Cytochrome P450 2C9 (Homo sapiens)"
qualitative_label = "TRUE"

[[record]]
compound = "C(=C(c1ccccc1)c1ccccc1)c1ccccc1"
target_or_test_system = "Cytochrome P450 2C9 (Homo sapiens)"
qualitative_label = "TRUE"

[[record]]
compound = "NC(=O)c1ncn([C@@H]2O[C@H](CO)[C@@H](O)[C@H]2O)c1N"
target_or_test_system = "Cytochrome P450 2C9 (Homo sapiens)"
qualitative_label = "FALSE"

[[record]]
compound = "CC(C)=CC(=O)O"
target_or_test_system = "Cytochrome P450 2C9 (Homo sapiens)"
qualitative_label = "FALSE"

[[record]]
compound = "CN(C)C(=O)Nc1ccccc1"
target_or_test_system = "Cytochrome P450 2C9 (Homo sapiens)"
qualitative_label = "FALSE"

[[record]]
compound = "CC(=O)N[C@@H](CCC(N)=O)C(=O)O"
target_or_test_system = "Cytochrome P450 2C9 (Homo sapiens)"
qualitative_label = "FALSE"

[[record]]
compound = "O=c1[nH]c(=O)n([C@H]2O[C@H](CO)[C@@H](O)[C@@H]2O)cc1/C=C\\Br"
target_or_test_system = "Cytochrome P450 2C9 (Homo sapiens)"
qualitative_label = "FALSE"

[[record]]
compound = "Nc1ccc2cc(S(=O)(=O)O)ccc2c1"
target_or_test_system = "Cytochrome P450 2C9 (Homo sapiens)"
qualitative_label = "TRUE"

[[record]]
compound = "CC(C)CCOC(=O)CC(C)C"
target_or_test_system = "Cytochrome P450 2C9 (Homo sapiens)"
qualitative_label = "FALSE"

[[record]]
compound = "COC(=O)[C@H]1[C@H]2C[C@@H]3c4[nH]c5cc(OC)ccc5c4CCN3C[C@H]2C[C@@H](OC(=O)COc2ccc(OC)cc2)[C@@H]1OC"
target_or_test_system = "Cytochrome P450 2C9 (Homo sapiens)"
qualitative_label = "TRUE"

[[record]]
compound = "CCN1CCCC(OC(=O)C(c2ccccc2)c2ccccc2)C1 (stereo not drawn)"
target_or_test_system = "Cytochrome P450 2C9 (Homo sapiens)"
qualitative_label = "FALSE"

[[record]]
compound = "NC(N)=NS(=O)(=O)c1ccc(N)cc1"
target_or_test_system = "Cytochrome P450 2C9 (Homo sapiens)"
qualitative_label = "FALSE"

[[record]]
compound = "Oc1ccc2c(c1)OC[C@@H](N1CCC(O)(c3ccc(F)cc3)CC1)[C@H]2O"
target_or_test_system = "Cytochrome P450 2C9 (Homo sapiens)"
qualitative_label = "TRUE"

[[record]]
compound = "Nc1ncnc2c1ncn2Cc1c(F)cccc1Cl"
target_or_test_system = "Cytochrome P450 2C9 (Homo sapiens)"
qualitative_label = "FALSE"

[[record]]
compound = "C=C[Si](OC)(OC)OC"
target_or_test_system = "Cytochrome P450 2C9 (Homo sapiens)"
qualitative_label = "FALSE"

[[record]]
compound = "CCCCCCCCCCC1CO1 (stereo not drawn)"
target_or_test_system = "Cytochrome P450 2C9 (Homo sapiens)"
qualitative_label = "FALSE"

[[record]]
compound = "CC(C)[N+](C)(C)CC(O)COc1cccc2ccccc12 (stereo not drawn)"
target_or_test_system = "Cytochrome P450 2C9 (Homo sapiens)"
qualitative_label = "FALSE"

[[record]]
compound = "Cc1c(C)n(CCN(C)C)c2ccc(C(=O)OCCN(C)C)cc12"
target_or_test_system = "Cytochrome P450 2C9 (Homo sapiens)"
qualitative_label = "FALSE"

[[record]]
compound = "CN(C)CCOC(c1ccc(Cl)cc1)c1ccccn1 (stereo not drawn)"
target_or_test_system = "Cytochrome P450 2C9 (Homo sapiens)"
qualitative_label = "FALSE"

[[record]]
compound = "CCC(C(=O)NC(N)=O)c1ccccc1 (stereo not drawn)"
target_or_test_system = "Cytochrome P450 2C9 (Homo sapiens)"
qualitative_label = "FALSE"

[[record]]
compound = "CCCC(C)C(=O)O (stereo not drawn)"
target_or_test_system = "Cytochrome P450 2C9 (Homo sapiens)"
qualitative_label = "TRUE"

[[record]]
compound = "Cc1onc(-c2ccccc2)c1-c1ccc(S(N)(=O)=O)cc1"
target_or_test_system = "Cytochrome P450 2C9 (Homo sapiens)"
qualitative_label = "TRUE"

[[record]]
compound = "CCCCCCCCCCCCCCCCCC(=O)OCCCCCCCCCCCCCC(C)C"
target_or_test_system = "Cytochrome P450 2C9 (Homo sapiens)"
qualitative_label = "FALSE"

[[record]]
compound = "C=C(C)[C@@H]1CCC2=CC(=O)C[C@@H](C)[C@]2(C)C1"
target_or_test_system = "Cytochrome P450 2C9 (Homo sapiens)"
qualitative_label = "TRUE"

[[record]]
compound = "Nc1ccn(C2CO[C@H](CO)O2)c(=O)n1 (stereo partly drawn)"
target_or_test_system = "Cytochrome P450 2C9 (Homo sapiens)"
qualitative_label = "FALSE"

[[record]]
compound = "NC1CCN(c2cccc(Cl)n2)CC1"
target_or_test_system = "Cytochrome P450 2C9 (Homo sapiens)"
qualitative_label = "FALSE"

[[record]]
compound = "C=CCn1c(=O)n([C@@H]2O[C@H](CO)[C@@H](O)[C@H]2O)c2nc(N)[nH]c(=O)c21"
target_or_test_system = "Cytochrome P450 2C9 (Homo sapiens)"
qualitative_label = "FALSE"

